FYI, the data here is from patent US4791215A.

- System: morphine analgesia
- EXPERIMENT NOTES: Increase in analgesia of morphine, Tail Flick Test (Experiment 1)
- Assay type: in vivo, rats
- CONDITIONS USED: 90'; compound 10 mg/kg i.p. + morphine 2 mg/kg
A collection of molecules and their measured percentage variation of latency of pain sensation
MEASURED QUANTITY: percentage variation of latency of pain sensation

INSERT INTO measurements (molecule, val) VALUES
  ('CCCN(CCC)C(=O)C(CCC(=O)O)NC(=O)c1ccc(Cl)cc1 (stereo not drawn) [Compound C-3]', '45.8 ± 22.8%'),
  ('CCCCNC(=O)C(CCC(=O)O)NC(=O)c1ccc(CC)cc1 (stereo not drawn) [Compound C-43]', '22.5 ± 13%'),
  ('CCCN(CCC)C(=O)C(CCC(=O)O)NC(=O)c1cccc(C)c1 (stereo not drawn) [Compound C-28]', '27.5 ± 15%'),
  ('CCCc1ccc(C(=O)NC(CCC(=O)O)C(=O)N(CCC)CCC)cc1 (stereo not drawn) [Compound C-35]', '28.8 ± 31%'),
  ('N#Cc1ccc(C(=O)NC(CCC(=O)N2CCCCC2)C(=O)O)cc1 [Compound D-10]', '35.4 ± 11.0%'),
  ('CCCN(CCC)C(=O)C(CC(=O)O)NC(=O)c1cccc(C#N)c1 (stereo not drawn) [Compound C-22]', '53.8 ± 14.9%'),
  ('CCCCCN(CCCCC)C(=O)C(CCC(=O)O)NC(=O)c1ccc(C)c(C)c1 (stereo not drawn) [Compound C-55]', '81.7 ± 13%'),
  ('O=C(NC(CCC(=O)N1CCCCC1)C(=O)O)c1ccc(Cl)c(Cl)c1 [Compound D-9]', '79.9 ± 12.0%'),
  ('CCCCN(CCCC)C(=O)C(CCC(=O)O)NC(=O)c1cccc(C#N)c1 (stereo not drawn) [Compound C-24]', '75.3 ± 14.0%'),
  ('CCCN(CCC)C(=O)C(CCC(=O)O)NC(=O)c1ccccc1Br (stereo not drawn) [Compound C-14]', '71.9 ± 13.2%'),
  ('CCCN(CCC)C(=O)C(CCC(=O)O)NC(=O)c1ccc(Br)cc1 (stereo not drawn) [Compound C-15]', '54.5 ± 14.7%'),
  ('CCCCNC(=O)CCC(NC(=O)c1ccc(CCC)cc1)C(=O)O [Compound D-14]', '60.3%'),
  ('CCCCNC(=O)C(CCC(=O)O)NC(=O)c1ccc(CCC)cc1 (stereo not drawn) [Compound C-44]', '39.8 ± 8%'),
  ('CCCCN(CCCC)C(=O)CCC(NC(=O)c1ccc(C#N)cc1)C(=O)O [Compound D-8]', '28.3 ± 12.0%'),
  ('CCCN(CCC)C(=O)C(CCC(=O)O)NC(=O)c1ccc(C)c(C)c1 (stereo not drawn) [Compound C-30]', '100.0 ± 0%'),
  ('CCN(CC)C(=O)C(CCC(=O)O)NC(=O)c1ccc(C)c(C)c1 (stereo not drawn) [Compound C-40]', '61.5 ± 14%'),
  ('CCc1ccc(C(=O)NC(CCC(=O)O)C(=O)NC2CCCCC2)cc1 (stereo not drawn) [Compound C-48]', '44.9 ± 18%'),
  ('CCCCCCNC(=O)C(CCC(=O)O)NC(=O)c1ccc(C)c(C)c1 (stereo not drawn) [Compound C-46]', '12.2 ± 11%');
